Ref: patent US20240352111A1

Biological target: T1, MfArtemin-MMH (cynomolgous monkey (Macaca fascicularis))
T1 construct: also called mfARTN.mmh; mfARTN (A108-G22).mmh
T1 chain: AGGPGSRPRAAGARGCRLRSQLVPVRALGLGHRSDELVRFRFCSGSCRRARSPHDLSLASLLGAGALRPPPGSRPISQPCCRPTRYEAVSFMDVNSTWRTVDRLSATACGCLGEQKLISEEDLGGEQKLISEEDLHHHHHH
Experiment: BLI (Octet HTX), mAb captured on AHC tips, artemin at 3.75 nM, 25 C
Below is a list of entries, each paired with its recorded Artemin Binding Response (nm) value.
Report the value in nm with no unit label.

Look over these answered cases.
binder	experimental_readout	quantitative_readout
H4H33336P (antibody, human IgG4 S228P, kappa, V domains shown, Fully human antibody; also called Artemin mAb; anti-ARTN antibody) VH: QVQLVESGGGVVQPGRSLRLSCVASGFILSHYGMHWVRQAPGKGLEWVAVIWFDGTNKYYADSVKGRFTVSRDNSKNTLYMQMNSLRAEDTAVYYCARDPPPARRGNYNGMDVWGQGTTVTVSS VL: DIQMTQSPSSLSASVGDRVTITCRASQDIRNDLGWYQQKPGKAPKRLIFGASSLQSGVPLRFSGSGSGTEFTLTINNLQPEDFATFYCLQDNSYPWTFGQGTKVEIKR	Artemin Binding Response (nm)	0.01
H4H33349P (antibody, human IgG4 S228P, kappa, V domains shown, Fully human antibody; also called Artemin mAb; anti-ARTN antibody) VH: QVQLVESGGGVVQPGRSLRLSCEASGFTFSDYDLHWVRQAPGKGLEWVAFISNDGSNEYYPKSVKGRFSISRDNSKNTLYLQMNSLRAEDTAVYHCTKERDYYYDSSGSLDYWGQGTLVTVSS VL: DIQMTQSPSSLSASVGDRVTITCRASQTINNYLNWYQQKPGKAPKLLIYTTSGLQSGVPSRFSGRGSGTDFTLAISSLQPEDFATYYCQQSYHSPFTFGPGTKVDIKR	Artemin Binding Response (nm)	0.02
H4H33335P (antibody, human IgG4 S228P, kappa, V domains shown, Fully human antibody; also called Artemin mAb; anti-ARTN antibody) VH: EVQLVESGGGLVQPGGSLRLSCAASGFTFSSYDMHWVRQATGKGLEWVSTIDTAGDTYYPGSVKGRFTISRENAKNSLYLQMNSLRAGDTAVYYCARDGELELQGYFDLWGRGTLVTVSS VL: DIQMTQSPSSLSASVGDRVTITCRASQIISIYLNWYQQKPGKAPKLLIYAASSLQSGVPSRFSGSGSGTDFTLTISSLQPEDFATYYCQQSYTTPLTFGGGTKVEIKR	Artemin Binding Response (nm)	0

Now, please, on to the next binder.
Entry H4H33331P (antibody, human IgG4 S228P, kappa, V domains shown, Fully human antibody (human variable and constant domains) from a VELOCIMMUNE mouse; also called Artemin mAb; anti-ARTN antibody) VH: EVQLVESGGDLVQPGGSLKLSCAASGFTFSGSAMHWVRQASGKGLEWVGRIRNKVHRYATEYGASVKGRFTISRDDSKNTAYLQMNSLKIEDTAVYYCVVVVPGSIEAFDIWGQGTMVTVSS VL: DIQMTQSPSSLSASVGDRVTITCRASQSISTYLNWYQQKPGKAPNLLIYAASTLESGVPSRFSGSGSGTDFTLTISSLQPEDFEIYYCQQSYNIPWTFGQGTKVEIKR has what Artemin Binding Response (nm)?
0
